Examples of compounds with documented Ki follow.
- Tgt: tau fibrils (Homo sapiens)
- Sequence (P10636 560-692 limits assumed): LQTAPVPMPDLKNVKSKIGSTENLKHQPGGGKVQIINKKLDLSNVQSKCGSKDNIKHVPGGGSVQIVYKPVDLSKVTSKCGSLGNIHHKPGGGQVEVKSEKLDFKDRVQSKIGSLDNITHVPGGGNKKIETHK
- Method summary: Thioflavin-T competition binding assay, tau fibrils

Here are 5 compounds together with their reported answers.
>  <Chemical smiles>
COc1ccc(/C=C/C(=O)c2nc3ccccc3s2)cc1

>  <Tgt>
tau fibrils (Homo sapiens)

>  <Ki>
716 nM

$$$$
>  <Chemical smiles>
COc1ccc(/C=C/C(=O)c2nccs2)cc1

>  <Tgt>
tau fibrils (Homo sapiens)

>  <Ki>
> 1000 nM

$$$$
>  <Chemical smiles>
COc1ccc(-c2cc(-c3nccs3)on2)cc1

>  <Tgt>
tau fibrils (Homo sapiens)

>  <Ki>
> 1000 nM

$$$$
>  <Chemical smiles>
COc1ccc(-c2cc(-c3nccs3)n[nH]2)cc1

>  <Tgt>
tau fibrils (Homo sapiens)

>  <Ki>
> 1000 nM

$$$$
>  <Chemical smiles>
COc1ccc(/C=C/c2cc(-c3nccs3)[nH]n2)cc1

>  <Tgt>
tau fibrils (Homo sapiens)

>  <Ki>
> 1000 nM

$$$$

As a next step, examine the compound that follows.
-- ask Suppose we examine the compound "CN(C)c1ccc(/C=C/C(=O)c2nccs2)cc1" ; what Ki value has been reported?
-- reply 401 nM

----------
- Tgt: Aβ fibrils (Homo sapiens, UniProt P05067)
- Sequence (P05067 672-713): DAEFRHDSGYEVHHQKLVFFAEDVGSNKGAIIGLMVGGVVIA
- Method summary: Thioflavin-T competition binding assay, Aβ fibrils
Metric: Ki (µM)

A = O=C(/C=C/c1ccc([N+](=O)[O-])cc1)c1nccs1
B = CN(C)c1ccc(/C=C/C(=O)c2nc3ccccc3s2)cc1
-- ask Would you let me know which has the greater Ki value, A or B ? Pick one; state its label.
-- reply A

P = CN(C)c1ccc(/C=C/C(=O)c2nccs2)cc1
Q = O=C(/C=C/c1ccc([N+](=O)[O-])cc1)c1nc2ccccc2s1
-- ask For P and Q , which recorded Ki is lower? Pick one; state its label.
-- reply Q

----------
- Tgt: Aβ fibrils (Homo sapiens)
- Method summary: Thioflavin-T competition binding assay, Aβ fibrils
Metric: Ki (nM)

>  <Compound>
COc1ccc(/C=C/c2cc(-c3nccs3)[nH]n2)cc1 [Compound 13]

>  <Ki [nM]>
327

$$$$
>  <Compound>
COc1ccc(/C=C/C(=O)c2nc3ccccc3s2)cc1 [Compound 4]

>  <Ki [nM]>
353

$$$$

----------
Examples of compounds with documented Ki follow.
- Tgt: Aβ fibrils (Homo sapiens, UniProt P05067)
- Method summary: Thioflavin-T competition binding assay, Aβ fibrils

>  <Chemical smiles>
COc1ccc(-c2cc(-c3nccs3)n[nH]2)cc1

>  <Tgt>
Aβ fibrils (Homo sapiens, UniProt P05067)

>  <Metric>
Ki

>  <Reported measurement>
> 1000 nM

$$$$
>  <Chemical smiles>
COc1ccc(/C=C/C(=O)c2nccs2)cc1

>  <Tgt>
Aβ fibrils (Homo sapiens, UniProt P05067)

>  <Metric>
Ki

>  <Reported measurement>
> 500 nM

$$$$

As a next step, examine the compound that follows.
-- ask Suppose we examine the compound "COc1ccc(-c2cc(-c3nccs3)on2)cc1" ; what Ki value has been reported?
-- reply > 1000 nM
